Biological target: WT PABP (human, UniProt P11940 1-636)
Sequence (P11940 whole entry): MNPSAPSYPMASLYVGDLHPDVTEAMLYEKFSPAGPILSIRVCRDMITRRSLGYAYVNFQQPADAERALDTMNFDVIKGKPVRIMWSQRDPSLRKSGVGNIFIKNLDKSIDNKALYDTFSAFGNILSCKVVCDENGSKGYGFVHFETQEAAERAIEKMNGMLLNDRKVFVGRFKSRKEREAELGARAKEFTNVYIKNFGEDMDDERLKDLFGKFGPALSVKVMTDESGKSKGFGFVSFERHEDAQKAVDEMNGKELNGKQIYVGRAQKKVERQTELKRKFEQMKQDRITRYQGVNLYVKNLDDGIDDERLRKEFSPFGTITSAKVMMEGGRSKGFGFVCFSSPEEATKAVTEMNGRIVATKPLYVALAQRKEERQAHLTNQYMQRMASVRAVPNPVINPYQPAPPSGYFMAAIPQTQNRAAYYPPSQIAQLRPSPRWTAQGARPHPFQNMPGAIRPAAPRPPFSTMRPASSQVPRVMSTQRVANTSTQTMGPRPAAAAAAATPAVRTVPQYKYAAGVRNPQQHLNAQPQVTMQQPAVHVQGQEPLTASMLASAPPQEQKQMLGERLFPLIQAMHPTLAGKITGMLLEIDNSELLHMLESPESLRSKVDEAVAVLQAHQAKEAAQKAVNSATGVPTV
Assay: EMSA
pKd: −log10 of the molar value.
VALUE_KIND: pKd

Answer with the recorded pKd of AAAAAAAAAAAAAAAAAAAAAAAAA (ssRNA) [poly(A)25 RNA] only.
~8.23
